target: polyclonal IgG (Gammanorm, Octapharma, Sweden); assay: SPR (Biacore 8K+), variant amine-coupled to CM5, Gammanorm as analyte, 1:1 kinetic fit
We begin with a simple list: items and their reported pKd.
Remember, pKd is on a log scale: it is -log10 of the molar concentration.

Example cases with answers are listed next.
pAM130 (B3 domain of Protein L; pos 10 Q, pos 45 H, pos 60 Q) (designed binder) PKEEVTIKAQLIYADGKTQTAEFKGTFEEATAEAYRYADLLAKEHGKYTVDVADKGYTLQIKFAGKEKTPEE
7.72
pAM123 (B3 domain of Protein L; pos 10 Q, pos 45 N, pos 60 N) (designed binder) PKEEVTIKAQLIYADGKTQTAEFKGTFEEATAEAYRYADLLAKENGKYTVDVADKGYTLNIKFAGKEKTPEE
7.89
pAM121 (B3 domain of Protein L; pos 10 N, pos 45 H, pos 60 Q) (designed binder) PKEEVTIKANLIYADGKTQTAEFKGTFEEATAEAYRYADLLAKEHGKYTVDVADKGYTLQIKFAGKEKTPEE
7.66

Q. // lookup pKd for pAM119 (B3 domain of Protein L; pos 10 N, pos 45 A, pos 60 Q) (designed binder) PKEEVTIKANLIYADGKTQTAEFKGTFEEATAEAYRYADLLAKEAGKYTVDVADKGYTLQIKFAGKEKTPEE
A. 7.80

Q. // lookup pKd for pAM140 (B3 domain of Protein L; pos 10 Y, pos 45 H, pos 60 Y) (designed binder) PKEEVTIKAYLIYADGKTQTAEFKGTFEEATAEAYRYADLLAKEHGKYTVDVADKGYTLYIKFAGKEKTPEE
A. 7.57

Q. // lookup pKd for pAM131 (B3 domain of Protein L; pos 10 Q, pos 45 H, pos 60 Y) (designed binder) PKEEVTIKAQLIYADGKTQTAEFKGTFEEATAEAYRYADLLAKEHGKYTVDVADKGYTLYIKFAGKEKTPEE
A. 7.68

Q. // lookup pKd for pAM133 (B3 domain of Protein L; pos 10 Y, pos 45 A, pos 60 N) (designed binder) PKEEVTIKAYLIYADGKTQTAEFKGTFEEATAEAYRYADLLAKEAGKYTVDVADKGYTLNIKFAGKEKTPEE
A. 7.89

Q. // lookup pKd for pAM118 (B3 domain of Protein L; pos 10 N, pos 45 N, pos 60 Y) (designed binder) PKEEVTIKANLIYADGKTQTAEFKGTFEEATAEAYRYADLLAKENGKYTVDVADKGYTLYIKFAGKEKTPEE
A. 7.70

Q. // lookup pKd for pAM127 (B3 domain of Protein L; pos 10 Q, pos 45 N, pos 60 Y) (designed binder) PKEEVTIKAQLIYADGKTQTAEFKGTFEEATAEAYRYADLLAKENGKYTVDVADKGYTLYIKFAGKEKTPEE
A. 7.82

Q. // lookup pKd for pAM135 (B3 domain of Protein L; pos 10 Y, pos 45 N, pos 60 Q) (designed binder) PKEEVTIKAYLIYADGKTQTAEFKGTFEEATAEAYRYADLLAKENGKYTVDVADKGYTLQIKFAGKEKTPEE
A. 7.77
